// provenance: ChEMBL document CHEMBL4177735

IC50 data for Apoptosis regulator Bcl-2 (Homo sapiens) follow.
Give the value in nM but do not write nM after it.

// solved cases for IC50 follow
[
  {
    "SMILES_STRING": "CN(CCO)c1ccc(S(=O)(=O)NC(=O)c2ccc(N3CCN(CC4=C(c5ccc(Cl)cc5)CCC(C)(C)C4)CC3)cc2)cc1S(=O)(=O)C(F)(F)F",
    "OUTPUT_UNIT": "nM",
    "IC50": 46
  },
  {
    "SMILES_STRING": "CC1(C)CCC(c2ccc(Cl)cc2)=C(CN2CCN(c3ccc(C(=O)NS(=O)(=O)c4ccc(NC5(CN6CCOCC6)CC5)c(S(=O)(=O)C(F)(F)F)c4)cc3)CC2)C1",
    "OUTPUT_UNIT": "nM",
    "IC50": 40.7
  },
  {
    "SMILES_STRING": "CC1(C)CCC(c2ccc(Cl)cc2)=C(CN2CCc3cc(C(=O)NS(=O)(=O)c4ccc(N[C@H](CCN5CCOCC5)CSc5ccccc5)c(S(=O)(=O)C(F)(F)F)c4)ccc3C2)C1",
    "OUTPUT_UNIT": "nM",
    "IC50": 12.6
  },
  {
    "SMILES_STRING": "CC1(C)CCC(c2ccc(Cl)cc2)=C(CN2CCN(c3ccc(C(=O)NS(=O)(=O)c4ccc(N[C@@H](CC5CC5)C(=O)N5CCOCC5)c(S(=O)(=O)C(F)(F)F)c4)cc3)CC2)C1",
    "OUTPUT_UNIT": "nM",
    "IC50": 68.2
  },
  {
    "SMILES_STRING": "CC1(C)CCC(c2ccc(Cl)cc2)=C(CN2CCN(c3ccc(C(=O)NS(=O)(=O)c4ccc(OCC5(CN6CCOCC6)COC5)c(S(=O)(=O)C(F)(F)F)c4)cc3)CC2)C1",
    "OUTPUT_UNIT": "nM",
    "IC50": 14.5
  }
]

Ask: # get_value(readout='IC50', item= CC1(C)CCC(c2ccc(Cl)cc2)=C(CNC2(Cn3cnc4cc(C(=O)NS(=O)(=O)c5ccc(N[C@H](CCN6CCOCC6)CSc6ccccc6)c(S(=O)(=O)C(F)(F)F)c5)ccc43)CC2)C1 )
Reply: 108

Ask: Then CC1(C)CCC(c2ccc(Cl)cc2)=C(CN2CCN(c3ccc(C(=O)NS(=O)(=O)c4ccc(N5CC(F)(F)C5)c(S(=O)(=O)C(F)(F)F)c4)cc3)CC2)C1 ?
Reply: 46.6

Ask: Moving on to CN(C)c1ccc(S(=O)(=O)NC(=O)c2ccc(N3CCN(CC4=C(c5ccc(Cl)cc5)CCC(C)(C)C4)CC3)cc2)cc1S(=O)(=O)C(F)(F)F
Reply: 65.1

Ask: What would you report for CC1(C)CCC(c2ccc(Cl)cc2)=C(CN2CCN(c3ccc(C(=O)NS(=O)(=O)c4ccc(OCC5(CN6CC(F)(F)C6)COC5)c(S(=O)(=O)C(F)(F)F)c4)cc3)CC2)C1 ?
Reply: 17.3
